- test-target: T1, chick N-cadherin expressed on transfected 3T3 cells (chick, UniProt P10288 165-912)
- T1 sequence (looked up): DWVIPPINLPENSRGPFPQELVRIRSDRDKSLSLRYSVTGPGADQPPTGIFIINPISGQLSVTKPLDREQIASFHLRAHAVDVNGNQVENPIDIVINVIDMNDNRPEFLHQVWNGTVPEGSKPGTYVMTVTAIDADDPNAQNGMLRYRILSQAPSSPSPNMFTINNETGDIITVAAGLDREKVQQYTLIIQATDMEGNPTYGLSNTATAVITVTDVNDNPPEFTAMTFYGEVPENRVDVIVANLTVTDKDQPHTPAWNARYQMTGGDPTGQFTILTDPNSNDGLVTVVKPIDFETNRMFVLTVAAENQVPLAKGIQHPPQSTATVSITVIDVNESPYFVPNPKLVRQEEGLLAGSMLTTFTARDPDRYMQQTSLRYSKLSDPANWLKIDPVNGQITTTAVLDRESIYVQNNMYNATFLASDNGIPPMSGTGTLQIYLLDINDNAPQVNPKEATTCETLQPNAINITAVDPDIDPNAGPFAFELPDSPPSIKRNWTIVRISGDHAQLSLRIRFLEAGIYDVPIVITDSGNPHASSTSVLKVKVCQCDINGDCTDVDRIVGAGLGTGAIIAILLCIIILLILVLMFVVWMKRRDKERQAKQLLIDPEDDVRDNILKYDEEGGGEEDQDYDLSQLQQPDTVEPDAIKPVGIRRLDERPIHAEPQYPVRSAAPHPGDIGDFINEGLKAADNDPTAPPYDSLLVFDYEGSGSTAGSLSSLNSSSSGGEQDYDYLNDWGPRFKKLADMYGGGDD
- protocol-summary: cell-based or functional assay
Positions of bridges follow the written chain, without caps; N, C: chain ends.
endpoint-label: % inhibition of N-cadherin dependent neurite outgrowth (peptide 250 µg/mL) (%)

binder	reported-measurement
Ac-CHAVC-NH2 (disulfide 1-5 (inferred)) [N-Ac-CHAVC-NH2]	68.2
Ac-CHAVSSC-NH2 (disulfide 1-7 (inferred)) [N-Ac-CHAVSSC-NH2]	34.4
Ac-CSHAVSC-NH2 (disulfide 1-7; SMILES CC(=O)N[C@H]1CSSC[C@@H](C(N)=O)NC(=O)[C@H](CO)NC(=O)[C@H](C(C)C)NC(=O)[C@H](C)NC(=O)[C@H](Cc2c[nH]cn2)NC(=O)[C@H](CO)NC1=O) [N-Ac-CSHAVSC-NH2]	8.3
Ac-CLRAHGVC-NH2 (disulfide 1-8 (inferred)) [N-Ac-CLRAHGVC-NH2]	-0.5
H-CHGVC-NH2 (disulfide 1-5 (inferred)) [H-CHGVC-NH2]	7.8

[1] Ac-CHGVDC-NH2 (disulfide 1-6 (inferred)) [N-Ac-CHGVDC-NH2]
[2] Ac-CSHAVC-NH2 (disulfide 1-6 (inferred)) [N-Ac-CSHAVC-NH2]
Between the entries labelled 1 and 2 , which has a larger % inhibition of N-cadherin dependent neurite outgrowth (peptide 250 µg/mL) value on record? State the label of the item chosen. 2
(2: 11%, 1: -8.6%)
